- system_tested: T1, human ACVR2A (human, UniProt P27037 20-135, limits assumed); note: test concentration or dose not given here
- T1 construct: coated antigen of the initial ELISA; also called activin receptor, type II A
- method_summary: ELISA
assay_readout: optical density (OD)
Numeric answer only, unit OD assumed.

// optical density value for 375_F07 (antibody, V domains shown, Group III) VH: EVQLLESGGGLVQPGGSLRLSCAASGFTFSDYSMNWVRQAPGKGLEWVSNINYNGGYTGYADSVKGRFTISRDNSKNTLYLQMNSLRAEDTAVYYCARGANWHDTALDYWGQGTLVTVSS VL: DIQMTQSPSSLSASVGDRVTITCRASQSILSYLNWYQQKPGKAPKLLIYAATSRASGVPSRFSGSGSGTDFTLTISSLQPEDFATYYCQQSYDSPLTFGGGTKVEIK : 3.67

Noted for 373_B05 (antibody, V domains shown, Group III) VH: EVQLLESGGGLVQPGGSLRLSCAASGFTFSDYSMNWVRQAPGKGLEWVSNINYNGGYKSYADSVKGRFTISRDNSKNTLYLQMNSLRAEDTAVYYCARGANWHDTALDYWGQGTLVTVSS VL: DIQMTQSPSSLSASVGDRVTITCRASQSIVTYLNWYQQKPGKAPKLVIYAATSRASGVPSRFSGSGSGTDFTLTISSLQPEDFATYYCQQSYSNPLTFGGGTKVEIK : its optical density reads 3.59

Kindly note the recorded optical density for 373_C10 (antibody, V domains shown, Group III) VH: EVQLLESGGGLVQPGGSLRLSCAASGFTFSSYSMNWVRQAPGKGLEWVAGINYNGGYTSYADSVKGRFTISRDNSKNTLYLQMNSLRAEDTAVYYCARGANWHDTALDYWGQGTLVTVSS VL: DIQMTQSPSSLSASVGDRVTITCRASQSILTYVNWYQQKPGKAPKLLIYAATSRASGVPSRFSGSGSGTDFTLTISSLQPEDFATYYCQQSYDNPLTFGGGTKVEIK , which is 3.65

The binder listed as 371_B12 (antibody, V domains shown, Group III) VH: EVQLLESGGGLVQPGGSLRLSCAASGFTFSDYSMNWVRQAPGKGLEWVAGINYNSGYTSYADSVKGRFTISRDNSKNTLYLQMNSLRAEDTAVYYCARGANWHDTALDYWGQGTLVTVSS VL: DIQMTQSPSSLSASVGDRVTITCRASQSIVTYLNWYQQKPGKAPKLVIYAATSRHSGVPSRFSGSGSGTDFTLTISSLQPEDFATYYCQQSYNNPLTFGGGTKVEIK has a reported optical density of 2.56

The value of optical density measured for the binder 374_D07 (antibody, V domains shown, Group III) VH: EVQLLESGGGLVQPGGSLRLSCAASGFTFDSYSMNWVRQAPGKGLEWVSGINYNSGYKSYADSVKGRFTISRDNSKNTLYLQMNSLRAEDTAVYYCARGANWHDTALDYWGQGTLVTVSS VL: DIQMTQSPSSLSASVGDRVTITCRASQSIVSYLNWYQQKPGKAPKLVIYAATSLASGVPSRFSGSGSGTDFTLTISSLQPEDFATYYCQQSYNSPLTFGGGTKVEIK turned out to be 3.71

Measured optical density of 371_E10 (antibody, V domains shown, Group III) VH: EVQLLESGGGLVQPGGSLRLSCAASGFTFDSYSMNWVRQAPGKGLEWVAGINYNGGYTSYADSVKGRFTISRDNSKNTLYLQMNSLRAEDTAVYYCARGANWHDTALDYWGQGTLVTVSS VL: DIQMTQSPSSLSASVGDRVTITCRASQSISTYLNWYQQKPGKAPKLLIYAVTSRASGVPSRFSGSGSGTDFTLTISSLQPEDFATYYCQQSYNSPLTFGGGTKVEIK : 3.06

Quick note, optical density for 371_B04 (antibody, V domains shown, Group III) VH: EVQLLESGGGLVQPGGSLRLSCAASGFTFSSYSMNWVRQAPGKGLEWVSGINYNGGYKSYADSVKGRFTISRDNSKNTLYLQMNSLRAEDTAVYYCARGANWHDTALDYWGQGTLVTVSS VL: DIQMTQSPSSLSASVGDRVTITCRASQSILSYLNWYQQKPGKAPKLVIYAVTSRHSGVPSRFSGSGSGTDFTLTISSLQPEDFATYYCQQSYDSPLTFGGGTKVEIK landed at 2.46

Quick note, optical density for 371_G11 (antibody, V domains shown, Group III) VH: EVQLLESGGGLVQPGGSLRLSCAASGFTFSSYGMNWVRQAPGKGLEWVSNINYNSGYTSYADSVKGRFTISRDNSKNTLYLQMNSLRAEDTAVYYCARGANWHDTALDYWGQGTLVTVSS VL: DIQMTQSPSSLSASVGDRVTITCRASQSILSYVNWYQQKPGKAPKLLIYAATSLASGVPSRFSGSGSGTDFTLTISSLQPEDFATYYCQQSYDSPLTFGGGTKVEIK landed at 2.84

// optical density lookup, binder = 369_D07 (antibody, V domains shown, Group III) VH: EVQLLESGGGLVQPGGSLRLSCAASGFTFSSYGMNWVRQAPGKGLEWVSGINYNGGYKSYADSVKGRFTISRDNSKNTLYLQMNSLRAEDTAVYYCARGANWHDTHLDYWGQGTLVTVSS VL: DIQMTQSPSSLSASVGDRVTITCRASQSIVSYLNWYQQKPGKAPKLVIYAATSRASGVPSRFSGSGSGTDFTLTISSLQPEDFATYYCQQSYDLPLTFGGGTKVEIK , result: 3.07

optical density reading for 367_B04 (antibody, V domains shown, Group III) VH: EVQLLESGGGLVQPGGSLRLSCAASGFTFDSYSMNWVRQAPGKGLEWVSGINYNSGYKSYADSVKGRFTISRDNSKNTLYLQMNSLRAEDTAVYYCARGANWHDTHLDYWGQGTLVTVSS VL: DIQMTQSPSSLSASVGDRVTITCRASQSILSYLNWYQQKPGKAPKLLIYAATSRASGVPSRFSGSGSGTDFTLTISSLQPEDFATYYCQQSYELPLTFGGGTKVEIK : 2.66
